Target: T1, soluble heterodimeric hCD3ε/δ.mFc protein (human)
T1 construct: also called soluble human CD3; soluble heterodimeric CD3 protein
T1 chain 1: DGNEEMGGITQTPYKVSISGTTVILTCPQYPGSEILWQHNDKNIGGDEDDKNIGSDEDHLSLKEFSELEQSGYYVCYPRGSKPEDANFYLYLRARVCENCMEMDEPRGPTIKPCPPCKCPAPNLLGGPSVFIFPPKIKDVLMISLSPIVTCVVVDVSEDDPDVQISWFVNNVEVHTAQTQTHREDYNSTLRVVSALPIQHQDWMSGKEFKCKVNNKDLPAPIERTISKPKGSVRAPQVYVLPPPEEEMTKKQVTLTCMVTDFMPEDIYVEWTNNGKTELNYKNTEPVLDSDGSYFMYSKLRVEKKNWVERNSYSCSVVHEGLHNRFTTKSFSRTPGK
T1 chain 2: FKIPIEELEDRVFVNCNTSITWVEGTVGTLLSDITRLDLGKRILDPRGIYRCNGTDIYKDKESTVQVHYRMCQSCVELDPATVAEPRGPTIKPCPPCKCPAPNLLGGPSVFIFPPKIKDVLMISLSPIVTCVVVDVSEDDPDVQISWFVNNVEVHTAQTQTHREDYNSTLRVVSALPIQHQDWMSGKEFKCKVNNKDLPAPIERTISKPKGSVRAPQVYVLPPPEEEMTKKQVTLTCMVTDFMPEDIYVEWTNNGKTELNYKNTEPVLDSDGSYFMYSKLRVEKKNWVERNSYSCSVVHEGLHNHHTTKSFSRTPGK
Assay: SPR MASS-1, 37 C, antigen-capture (hCD3ε/δ.mFc captured), antibody injected
endpoint_name: kon (M⁻¹ s⁻¹)
# number only, unit M⁻¹ s⁻¹ dropped from output

Supply recorded kon for BSPSMA/CD3-1400 (bispecific antibody, IgG4, V domains shown, modified (chimeric) IgG4 Fc domain; also called PSMA-VH-11810 x CD3-VH-G14) VH 1: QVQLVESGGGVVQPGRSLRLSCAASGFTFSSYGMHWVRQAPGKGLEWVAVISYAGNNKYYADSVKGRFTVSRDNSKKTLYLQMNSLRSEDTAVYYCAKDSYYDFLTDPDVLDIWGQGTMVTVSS VH 2: EVQLVESGGGLVQPGRSLRLSCAASGFTFDDYSMHWVRQAPGKGLEWVSGISWNSGSIGYADSVKGRFTISRDNAKNSLYLQMNSLRAEDTALYYCAKYGSGYGKFYHYGMDVWGQGTTVTVSS VL: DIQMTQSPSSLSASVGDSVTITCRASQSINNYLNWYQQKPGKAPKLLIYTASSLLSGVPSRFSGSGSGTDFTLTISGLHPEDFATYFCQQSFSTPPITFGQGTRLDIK here.
62100
